B1: C8orf76 (parent)
chain: YCAKLCEPQWFYEETESSDDVEVL

# Variants of: B1
# experimental protocol: protein stability index of a GFP-peptide fusion (GPS, HEK-293T) (PSI 1-6); higher = more stable;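 further: lentivirally expressed fusions sorted by FACS into six bins by GFP to DsRed ratio, PSI derived from sequencing read proportions per bin multiplied by bin number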
# assay context: c terminus: a fixed tail appended
Classification field: enter YES for protein stability index values not below 3, NO for values below it.

Prompt: Evaluate `E13K` : protein stability index at minimum 3?
Response: NO

Prompt: Evaluate `V21T` : protein stability index at minimum 3?
Response: YES

Prompt: Evaluate `Y12N` : protein stability index at minimum 3?
Response: NO

Prompt: Evaluate `C2Y` : protein stability index at minimum 3?
Response: NO

---
Prompt: Evaluate `Y1I` : protein stability index at minimum 3?
Response: YES

Prompt: Evaluate `S18Q` : protein stability index at minimum 3?
Response: NO

Prompt: Evaluate `W10R` : protein stability index at minimum 3?
Response: YES

Prompt: Evaluate `W10N` : protein stability index at minimum 3?
Response: YES

Prompt: Evaluate `S18A` : protein stability index at minimum 3?
Response: NO

Prompt: Evaluate `V23K` : protein stability index at minimum 3?
Response: NO

Prompt: Evaluate `F11H` : protein stability index at minimum 3?
Response: NO

Prompt: Evaluate `L5K` : protein stability index at minimum 3?
Response: NO

Prompt: Evaluate `Q9V` : protein stability index at minimum 3?
Response: NO

Prompt: Evaluate `F11I` : protein stability index at minimum 3?
Response: NO

Prompt: Evaluate `L24C` : protein stability index at minimum 3?
Response: NO

Prompt: Evaluate `L24A` : protein stability index at minimum 3?
Response: NO

Prompt: Evaluate `E16D` : protein stability index at minimum 3?
Response: NO

Prompt: Evaluate `V23T` : protein stability index at minimum 3?
Response: NO

Origin of measurements: the supplement of paper PMC10567573
